# Assay protocol: Cellular uptake in human OVCAR3 cell cytoplasm assessed as per 10^3 cells after 1 hr by gamma counting
# Format: ADME, cell-based
# Recorded conditions: ovcar-3, 1 h
Measured property: Drug uptake (cpm)
Provide only the numeric value, understood in cpm.

Worked cases, answers included:
CC(C)(C)c1cc(C(C)(C)C)c2c(c1F)COP(=O)(O[C@H]1C[C@H](n3cc([125I])c(=O)[nH]c3=O)O[C@@H]1CO)O2 (stereo not given in full) ... 62.5
Cc1cccc2c1OP(=O)(O[C@H]1C[C@H](n3cc([125I])c(=O)[nH]c3=O)O[C@@H]1CO)OC2 (stereo not given in full) ... 6.2
Cc1cccc2c1OP(=O)(OC[C@H]1O[C@@H](n3cc([125I])c(=O)[nH]c3=O)C[C@@H]1OP1(=O)OCc3cccc(C)c3O1)OC2 (stereo not given in full) ... 97.1
O=c1[nH]c(=O)n([C@H]2C[C@H](OP3(=O)OCc4ccccc4O3)[C@@H](CO)O2)cc1[125I] (stereo not given in full) ... 7.2

Field: next compound
What value of Drug uptake has been recorded for this entry: O=c1[nH]c(=O)n([C@H]2C[C@H](OP3(=O)OCc4ccccc4O3)[C@@H](COP3(=O)OCc4ccccc4O3)O2)cc1[125I] (stereo not given in full) 97.6

* * *

# Assay protocol: Cellular uptake in human OVCAR3 cell cytoplasm assessed as per 10^3 cells after 24 hrs by gamma counting
# Type: ADME, cell-based
# Recorded conditions: ovcar-3, 24 h, 24 h
So basically, if Drug uptake comes in under 3 cpm it's True, and if it's 3 cpm or more it's False.

Recorded results for 2 compounds are shown here.
CC(C)(C)c1cc(C(C)(C)C)c2c(c1F)COP(=O)(OC[C@H]1O[C@@H](n3cc([125I])c(=O)[nH]c3=O)C[C@@H]1O)O2 (stereo in doubt) ... True
CC(C)(C)c1cc(C(C)(C)C)c2c(c1F)COP(=O)(OC[C@H]1O[C@@H](n3cc([125I])c(=O)[nH]c3=O)C[C@@H]1O)O2 (stereo in doubt; 8b) ... False

Problem: For the compound O=c1[nH]c(=O)n([C@H]2C[C@H](O)[C@@H](COP3(=O)OCc4ccccc4O3)O2)cc1[125I] (stereo in doubt; form 2) , is Drug uptake under 3 cpm? False

Problem: For the compound O=c1[nH]c(=O)n([C@H]2C[C@H](O)[C@@H](COP3(=O)OCc4ccccc4O3)O2)cc1[125I] (stereo in doubt; 6b) , is Drug uptake under 3 cpm? False

Problem: For the compound Cc1cccc2c1OP(=O)(OC[C@H]1O[C@@H](n3cc([125I])c(=O)[nH]c3=O)C[C@@H]1O)OC2 (stereo in doubt; 7b) , is Drug uptake under 3 cpm? True

Problem: For the compound Cc1cccc2c1OP(=O)(OC[C@H]1O[C@@H](n3cc([125I])c(=O)[nH]c3=O)C[C@@H]1O)OC2 (stereo in doubt; form 2) , is Drug uptake under 3 cpm? True

* * *

# Assay protocol: Cellular uptake in human OVCAR3 cell nucleus assessed as per 10^3 cells after 24 hrs by gamma counting
# Format: ADME, cell-based
# Recorded conditions: ovcar-3, 24 h
Measured property: Drug uptake
Your reply should be a number followed by the unit it is expressed in.

Worked cases, answers included:
Cc1cccc2c1OP(=O)(O[C@H]1C[C@H](n3cc([125I])c(=O)[nH]c3=O)O[C@@H]1CO)OC2 (stereo not given in full) ... 15.7 cpm
CC(C)(C)c1cc(C(C)(C)C)c2c(c1F)COP(=O)(O[C@H]1C[C@H](n3cc([125I])c(=O)[nH]c3=O)O[C@@H]1CO)O2 (stereo not given in full) ... 66.7 cpm
Cc1cccc2c1OP(=O)(OC[C@H]1O[C@@H](n3cc([125I])c(=O)[nH]c3=O)C[C@@H]1OP1(=O)OCc3cccc(C)c3O1)OC2 (stereo not given in full) ... 24.5 cpm
O=c1[nH]c(=O)n([C@H]2C[C@H](OP3(=O)OCc4ccccc4O3)[C@@H](COP3(=O)OCc4ccccc4O3)O2)cc1[125I] (stereo not given in full) ... 18.1 cpm

Field: next compound
What value of Drug uptake has been recorded for this entry: O=c1[nH]c(=O)n([C@H]2C[C@H](OP3(=O)OCc4ccccc4O3)[C@@H](CO)O2)cc1[125I] (stereo not given in full) 30.2 cpm

* * *

# Assay protocol: Half life of the compound in phosphate buffer at pH 7.3
# Assay type: physicochemical
Quick reference for t1/2 among some compounds
Your reply should be a number followed by the unit it is expressed in.

CC(C)(C)c1cc(C(C)(C)C)c2c(c1F)COP(=O)(O[C@H]1C[C@H](n3cc(I)c(=O)[nH]c3=O)O[C@@H]1CO)O2 (stereo in doubt; form 2) ... 17.3 h

What value of t1/2 has been recorded for this entry: O=c1[nH]c(=O)n([C@H]2C[C@H](O)[C@@H](COP3(=O)OCc4ccccc4O3)O2)cc1[125I] (stereo in doubt; form 1) 5.1 h

What value of t1/2 has been recorded for this entry: CC(C)(C)c1cc(C(C)(C)C)c2c(c1F)COP(=O)(OC[C@H]1O[C@@H](n3cc(I)c(=O)[nH]c3=O)C[C@@H]1O)O2 (stereo in doubt; form 2) 61.5 h

* * *

# Assay protocol: Cellular uptake in human OVCAR3 cell nucleus assessed as per 10^3 cells after 24 hrs by gamma counting
# Type: ADME, cell-based
# Recorded conditions: ovcar-3, 24 h, 24 h
Quick reference for Drug uptake among some compounds
Provide only the numeric value, understood in cpm.

Worked cases, answers included:
O=c1[nH]c(=O)n([C@H]2C[C@H](O)[C@@H](COP3(=O)OCc4ccccc4O3)O2)cc1[125I] (stereo in doubt; 6b) ... 39.4
Cc1cccc2c1OP(=O)(OC[C@H]1O[C@@H](n3cc([125I])c(=O)[nH]c3=O)C[C@@H]1O)OC2 (stereo in doubt; 7b) ... 25.9

Field: next compound
What value of Drug uptake has been recorded for this entry: CC(C)(C)c1cc(C(C)(C)C)c2c(c1F)COP(=O)(OC[C@H]1O[C@@H](n3cc([125I])c(=O)[nH]c3=O)C[C@@H]1O)O2 (stereo in doubt) 91.6

* * *

Quick reference for pIC50 among some compounds
# Tested on: Cholinesterase (Homo sapiens)
# Sequence (P06276 whole entry): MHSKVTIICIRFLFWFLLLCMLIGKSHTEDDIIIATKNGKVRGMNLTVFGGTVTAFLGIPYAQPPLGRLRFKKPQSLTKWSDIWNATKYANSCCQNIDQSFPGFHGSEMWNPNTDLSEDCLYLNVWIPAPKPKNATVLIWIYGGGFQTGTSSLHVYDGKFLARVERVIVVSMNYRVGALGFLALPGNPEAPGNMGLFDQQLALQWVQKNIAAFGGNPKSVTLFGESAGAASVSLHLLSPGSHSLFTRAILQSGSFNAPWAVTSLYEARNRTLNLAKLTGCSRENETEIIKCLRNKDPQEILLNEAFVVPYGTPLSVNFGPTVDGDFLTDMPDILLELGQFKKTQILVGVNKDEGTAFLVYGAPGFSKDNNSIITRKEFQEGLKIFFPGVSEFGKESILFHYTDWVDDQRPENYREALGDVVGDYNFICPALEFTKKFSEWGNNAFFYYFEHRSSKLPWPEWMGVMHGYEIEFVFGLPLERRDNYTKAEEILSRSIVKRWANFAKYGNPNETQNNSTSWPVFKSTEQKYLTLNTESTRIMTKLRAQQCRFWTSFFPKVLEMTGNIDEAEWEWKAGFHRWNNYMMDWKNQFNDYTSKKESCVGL
# Assay protocol: Inhibition of human BChE after 30 mins by microplate reader method
Lab note: report pIC50 as minus log10 of the concentration in molar units, number only.

CC(C)(C)c1cc(C(C)(C)C)c2c(c1F)COP(=O)(OC[C@H]1O[C@@H](n3cc(I)c(=O)[nH]c3=O)C[C@@H]1F)O2 (stereo in doubt; form 1) ... 6.26
O=c1[nH]c(=O)n([C@H]2C[C@H](O)[C@@H](COP3(=O)OCc4ccccc4O3)O2)cc1I (stereo in doubt; form 1) ... 5.89
CC(C)(C)c1cc(C(C)(C)C)c2c(c1F)COP(=O)(OC[C@H]1O[C@@H](n3cc(I)c(=O)[nH]c3=O)C[C@@H]1F)O2 (stereo in doubt; form 2) ... 7.70
CC(C)(C)c1cc(C(C)(C)C)c2c(c1F)COP(=O)(OC[C@H]1O[C@@H](n3cc(I)c(=O)[nH]c3=O)C[C@@H]1O)O2 (stereo in doubt; form 3) ... 5.95

What value of pIC50 has been recorded for this entry: Cc1cn([C@H]2C[C@H](F)[C@@H](COP3(=O)OCc4c(F)c(C(C)(C)C)cc(C(C)(C)C)c4O3)O2)c(=O)[nH]c1=O (stereo in doubt; form 1) 6.69

* * *

# Assay protocol: Cellular uptake in human OVCAR3 cell nucleus assessed as per 10^3 cells after 1 hr by gamma counting
# Type: ADME, cell-based
# Recorded conditions: ovcar-3, 1 h, 1 h
Measured property: Drug uptake (cpm)
Provide only the numeric value, understood in cpm.

O=c1[nH]c(=O)n([C@H]2C[C@H](O)[C@@H](COP3(=O)OCc4ccccc4O3)O2)cc1[125I] (stereo in doubt; 6b) ... 5.7
CC(C)(C)c1cc(C(C)(C)C)c2c(c1F)COP(=O)(OC[C@H]1O[C@@H](n3cc([125I])c(=O)[nH]c3=O)C[C@@H]1O)O2 (stereo in doubt; 8b) ... 7.9
Cc1cccc2c1OP(=O)(OC[C@H]1O[C@@H](n3cc([125I])c(=O)[nH]c3=O)C[C@@H]1O)OC2 (stereo in doubt; 7b) ... 4.5
O=c1[nH]c(=O)n([C@H]2C[C@H](O)[C@@H](COP3(=O)OCc4ccccc4O3)O2)cc1[125I] (stereo in doubt; form 2) ... 4.9

What value of Drug uptake has been recorded for this entry: CC(C)(C)c1cc(C(C)(C)C)c2c(c1F)COP(=O)(OC[C@H]1O[C@@H](n3cc([125I])c(=O)[nH]c3=O)C[C@@H]1O)O2 (stereo in doubt) 7.8

What value of Drug uptake has been recorded for this entry: Cc1cccc2c1OP(=O)(OC[C@H]1O[C@@H](n3cc([125I])c(=O)[nH]c3=O)C[C@@H]1O)OC2 (stereo in doubt; form 2) 5.4
